# STUDY TARGET: Histone deacetylase 8 (Homo sapiens, UniProt Q9BY41)
# Sequence (Q9BY41 whole entry): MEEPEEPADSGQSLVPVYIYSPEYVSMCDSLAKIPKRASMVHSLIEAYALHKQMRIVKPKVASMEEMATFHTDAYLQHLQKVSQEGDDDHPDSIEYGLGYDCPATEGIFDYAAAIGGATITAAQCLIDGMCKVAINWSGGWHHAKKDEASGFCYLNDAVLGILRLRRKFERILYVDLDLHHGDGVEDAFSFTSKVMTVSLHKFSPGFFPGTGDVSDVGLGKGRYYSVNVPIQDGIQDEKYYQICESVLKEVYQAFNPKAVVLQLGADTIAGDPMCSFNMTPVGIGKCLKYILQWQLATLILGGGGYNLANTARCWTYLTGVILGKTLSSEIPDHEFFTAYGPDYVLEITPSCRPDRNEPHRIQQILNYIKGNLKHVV
# PROTOCOL: Inhibition of HDAC8 (unknown origin)
QUANTITY KIND: IC50
Entry format: amount then unit.

Memo: CNC(=O)[C@H](N)Cc1ccc(Cl)cc1Cl , reported IC50: 16500 nM

Memo: COc1ccc(NC(=O)[C@H](N)Cc2ccc(Cl)cc2Cl)cc1 , reported IC50: 2670 nM

Memo: N[C@H](Cc1ccc(Cl)cc1Cl)C(=O)NC1Cc2ccccc2C1 , reported IC50: 8760 nM

Memo: N[C@H](Cc1ccc(O)cc1)C(=O)N1Cc2ccccc2C1 , reported IC50: 4280 nM

Memo: N[C@H](Cc1ccc(Cl)cc1Cl)C(=O)NCCc1ccccc1 , reported IC50: 2500 nM

Memo: N[C@H](Cc1ccc(Cl)cc1Cl)C(=O)NCCc1c[nH]c2ccc(O)cc12 , reported IC50: 1770 nM

Memo: N[C@H](Cc1ccc(Cl)cc1Cl)C(=O)NCCc1ccc(O)c(O)c1 , reported IC50: 2070 nM

Memo: N[C@H](Cc1ccc(Cl)cc1Cl)C(=O)N1CCc2ccccc2C1 , reported IC50: 2060 nM

Memo: N[C@H](Cc1ccc(Cl)cc1Cl)C(=O)NCCc1c[nH]c2ccccc12 , reported IC50: 970 nM

Memo: CNCc1ccc2c(c1)CN(C(=O)[C@H](N)Cc1ccc(Cl)cc1Cl)C2 , reported IC50: 176 nM

Memo: N[C@H](Cc1ccc(O)cc1)C(=O)N1CCc2ccccc2C1 , reported IC50: 21300 nM

Memo: N[C@H](Cc1ccc(Cl)cc1Cl)C(=O)N1Cc2ccc(NC(=O)CCc3ccccc3)cc2C1 , reported IC50: 259 nM

Memo: N[C@H](Cc1ccccc1)C(=O)N1CCc2ccccc2C1 , reported IC50: 10700 nM
